Reference source for all entries: paper PMC2756588

tested_target: T1, Boi2, P39969
T1 sequence (P39969 32-116, looked up): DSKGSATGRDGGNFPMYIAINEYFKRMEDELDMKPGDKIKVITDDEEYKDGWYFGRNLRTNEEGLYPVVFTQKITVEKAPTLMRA
assay_name: SPOT array
conditions_used: median of control spots 1161
Here, each record is paired with measured SPOT intensity data.

# binder, SPOT intensity
data = [
    ("GKLKHIPRRPYEIER", 0),
    ("LLGRKRPVMERVVDI", 1),
    ("QRKSLRRPTLSKPAV", 0),
    ("LFMKGTPEFPKSGFS", 0),
]
